# target.entity: T1, monkey IL-25 expressed with a C-terminal myc-myc-hexahistidine tag (M. fascicularis (cynomolgus monkey))
# T1 construct: also called Monkey IL-25-MMH; MfIL-25-MMH
# T1 chain: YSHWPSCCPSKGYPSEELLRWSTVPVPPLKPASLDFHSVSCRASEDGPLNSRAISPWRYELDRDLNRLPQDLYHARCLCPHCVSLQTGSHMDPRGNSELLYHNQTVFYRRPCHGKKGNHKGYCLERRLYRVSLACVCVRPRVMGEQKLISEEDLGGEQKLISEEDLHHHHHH
# assay.summary: SPR Biacore, antibody captured, 37C;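 note: biacore 4000 surface plasmon resonance biosensor measuring binding of IL-25-MMH to purified anti-IL-25 antibodies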
property.label: 100 nM Monkey IL-25-MMH Bound (RU)
Give just the numeric value; RU need not be written.

binder | unit.symbol | 100 nM Monkey IL-25-MMH Bound (RU)
H4H10883P (antibody, human IgG4, V domains shown, H4H prefix = human IgG4 Fc) VH: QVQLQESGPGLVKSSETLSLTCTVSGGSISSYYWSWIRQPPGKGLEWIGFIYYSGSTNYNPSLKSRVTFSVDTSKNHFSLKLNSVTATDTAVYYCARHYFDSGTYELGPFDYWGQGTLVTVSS VL: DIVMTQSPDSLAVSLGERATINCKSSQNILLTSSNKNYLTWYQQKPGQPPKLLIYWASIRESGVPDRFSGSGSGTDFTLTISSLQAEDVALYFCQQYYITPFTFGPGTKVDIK | RU | 72
H4H10901P (antibody, human IgG4, V domains shown, H4H prefix = human IgG4 Fc) VH: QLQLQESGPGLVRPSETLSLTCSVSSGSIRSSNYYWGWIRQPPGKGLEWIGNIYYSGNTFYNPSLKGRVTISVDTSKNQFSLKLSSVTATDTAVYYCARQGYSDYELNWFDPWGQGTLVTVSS VL: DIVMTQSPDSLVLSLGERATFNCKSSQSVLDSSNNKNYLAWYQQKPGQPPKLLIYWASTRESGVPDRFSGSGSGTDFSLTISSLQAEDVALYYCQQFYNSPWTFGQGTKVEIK | RU | 64

QUERY: Reported 100 nM Monkey IL-25-MMH Bound (RU), binder H4H10905P (antibody, human IgG4, V domains shown, H4H prefix = human IgG4 Fc) VH: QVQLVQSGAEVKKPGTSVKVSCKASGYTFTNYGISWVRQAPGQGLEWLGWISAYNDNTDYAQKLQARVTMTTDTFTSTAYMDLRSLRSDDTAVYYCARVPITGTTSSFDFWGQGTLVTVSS VL: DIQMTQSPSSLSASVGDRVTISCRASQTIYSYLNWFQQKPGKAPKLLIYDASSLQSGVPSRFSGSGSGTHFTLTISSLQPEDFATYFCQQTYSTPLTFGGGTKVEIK : ____
RESULT: 59

QUERY: Reported 100 nM Monkey IL-25-MMH Bound (RU), binder H4H10871P (antibody, human IgG4, V domains shown, H4H prefix = human IgG4 Fc) VH: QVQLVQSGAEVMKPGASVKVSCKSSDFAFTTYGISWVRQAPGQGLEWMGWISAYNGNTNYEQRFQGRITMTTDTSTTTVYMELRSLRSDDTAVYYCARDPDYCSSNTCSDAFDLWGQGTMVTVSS VL: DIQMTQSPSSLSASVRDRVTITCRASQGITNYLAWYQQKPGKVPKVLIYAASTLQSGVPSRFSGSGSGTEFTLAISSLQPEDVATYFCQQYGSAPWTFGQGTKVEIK : ____
RESULT: 54

QUERY: Reported 100 nM Monkey IL-25-MMH Bound (RU), binder H4H10861P (antibody, human IgG4, V domains shown, H4H prefix = human IgG4 Fc) VH: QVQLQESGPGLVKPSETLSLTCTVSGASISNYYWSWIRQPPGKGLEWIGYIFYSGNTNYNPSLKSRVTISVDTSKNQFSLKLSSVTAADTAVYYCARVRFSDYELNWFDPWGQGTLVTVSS VL: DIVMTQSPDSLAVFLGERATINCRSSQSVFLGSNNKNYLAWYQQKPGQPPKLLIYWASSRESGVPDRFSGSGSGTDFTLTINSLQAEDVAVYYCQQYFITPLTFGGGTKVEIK : ____
RESULT: 61
